assay: soluble on expression in E. coli; label from the status in PepcDB or PDB records
Quantity Name: soluble on expression in E. coli

Here is how some sequences turned out for soluble on expression in E. coli.
biosequence=MMWKQAMTDVAEKTLTNIKRFNGRFPHVSEDGEHYELNNNNEWTNGFWSGILWLCYEYTNDPAFRQAAASTVRSFQQRMEQNLELDHHDIGFLYSLSSKAQWIIERDERAKQLTIEAADVLMKRWREKIELFQAWGPEGDLSNGGRIIVDCLMNLPLLFWASEVTGNPDYREAAIIHADKTRRFIVRGDDSTYHTFYFNQETGEALRGGTHQGYEDGSTWSRGQAWAIYGFAIAYRYTGNERYLETAKRTAKYFIENLPADYVAYWDFNAPITPDTKRDSSASAIASCGILELLSHLQETDPDKAFFQQSVQKQMTSLVENYASEKDAQGLIKRGSYSVRIGHAPDDYVIWGDYFYTEALMRLEKLRNGYWYEGKLEHHHHHH test_result=soluble
biosequence=LAELFEKAAAHLQGLIQVASREQLLYLYARYKQVKVGNCNTPKPSFFDFEGKQKWEAWKALGDSSPSQAMQEYIAVVKKLDPGWNPQIPEKKGKEA test_result=soluble
biosequence=MPTPAYMRIEGEKQGLITAGTFTEDSVGNIYQEGHEDEVLVQGFEHQVLLPRDPQSGQPTGQRVHKPVRITKVFDKASPLMYNALTSGEKLPKVEIKWYRTSATGTQEHYFTTVLHDAIIVDITASMPNCQDPSQAHFTHLEDVFMTYRAIDWTHEVAGTSGNDDWRTAMKA test_result=soluble
biosequence=MIVRFAGRRGVVSTCNLNGGYREDLRYAFNNSCGRDPDVIAKRSVGMRGKTMIEHYAALAEELGLPLDKTTGMGTAALIENTATSSRQYHGVTVMAVATAGIDVNGGRAGEPAAYNEFTQTDLIKPGTINVFLFIDASLDAGTLTRALVTATEAKSAALQELMANSMYSEDLATGSGTDSLIAICNKESEIVLQNSGKHVLLGEMIGQSVKEAITEALSRQTKMTPTRQASIEWQTKRYGITREAIVSECLRLYPHLKKEVVEAGIGGIDRDNRLVAAVAAIAHLCDQNRWQIISDKSMTCTAENILHTILSERGISEEANRKDIVCGQDAPAYRQVLSLCLHTLARILHNRIIHSSL test_result="not soluble"
biosequence=MKIAGLKQLNTALKEAASGGFSRQASRWLEECGQDFLEIVQSELISTQTIDTEKLLSSFEKGAEDNLWIVQSGGLSLEVGTQLDYASFLNDGHWTSKQDVRWVPGRFQGSRFIYDPAASTGMALKRKWIPGTGYWDHALLLYEQLFEKSLESKLRQWLKKL test_result="not soluble"

// returns reported soluble on expression in E. coli for input `MGSDKIHHHHHHMISNLYFVKLKNIGEHEFIKRYIKNYMDIKLLDDVFINEKRGYKVDGFKLSYAFPFMSLYDIGWKAISASTSDIIAKGVKPEFYLISLGLPPDFDVNKAEELIGGISDAIHYYGGRYVGGDLNDSDSNGWVDVFVEGEVLCDISDKVIDDGDLLVIGDYIGYTTNVFISYINNFNIQILPESLLKVKHPIVKKSLLFFMKKYCKFIKYSTDISDGLMVSLYKIVDNFNLGINITEIPIDKNVFNSLKLRLNLTELDILKYAGEEFLPLLIIDKNSPVKEMLAELQYLAFNPLIIGQVIHENRLITYKNTVIKNTGWDNFIGWY`
not soluble

// returns reported soluble on expression in E. coli for input `MAYWLVKSEPSVWSWDQQVAKGAAGEAWTGVRNHSAKLHMVAMRRGDRAFYYHSNEGKEIVGIAEIIREAYPDPTDASGKFVCVDIKADKPLKTPVTLAAVKAEPRLADMALMKYSRLSVQPVTAEEWKLVCKMGGLLEHHHHHH`
not soluble

// returns reported soluble on expression in E. coli for input `GPGSGLTELQMRARRCPNRQARIDWSEGEVRSFYQALSQYGTDFSAIAVLFPSRSRRDIKRLYQREMRQKPKEVQAALNQKHPIDMAVFEVRYEAKKKEAQQPVKMKKLNSEELAFLDEIAGRQPSESAMHMKGEELEVPVPAATLGGVEEATAAPPSRLRKRPRGTHQADSEDGPESKRATKEIPPAADDDFDMEQESFFDMVVRHEREDNAPLDMLFAAQLEQGQQQHLAALEDSDFSFE`
soluble

// returns reported soluble on expression in E. coli for input `MYLKETLDQFTSINNILKLLKKSPGFNKYCIQERLPKETVITSDKRRKYIYIIEDGFMKLVFEGTNKHNFSYILQKGAFPHLPVYTEDIPKHMMLIALTDVVWWKIEFQFFKEMMELEDPRNYIMLHQLAETRRRLYIIAVQEKLSSRESIYFSLNTMIDYGLRVSEKAVELPKFLTYQILADNSNTSKSYTSKVLSNLREKGILESQKKPWRINDVQKLQELIDAEALLAIL`
not soluble

// returns reported soluble on expression in E. coli for input `SLNDNFKKQPHHLIYEELLQQGITLGITTRGDGLSDYPKNAFNMARYIDDRPYNITQHQLQLAEEIAFDRKNWVFPIQTHENKVACITKDDIGTNIDTLTDALHGIDAMYTYDSNVLLTMCYADCVPVYFYSTKHHFIALAHAGWRGTYTEIVKEVLKHVNFDLKDLHVVIGPSTSSSYEINDDIKNKFETLPIDSANYIETRGRDRHGIDLKKANAALLIYYGVPKENIYTTAYATSEHLELFFSYRLEKGQTGRMLAFIGQQ`
soluble

// returns reported soluble on expression in E. coli for input `MGSDKIHHHHHHMTQEDKKLSCTDCALLNCHKKDKTFPQFCLTTHTPEETIEGVNELYRKDDFVAKLSNAAAEIEGTYYGKLTRVEEIMAFAKRIGAKKIGIATCVGLMSEARIFAKILKAKGLESYGIICKVGAVDKTQVGVPEELKVNKGCHESLCNPVLQATLLNEEKTDLNVIVGLCVGHDSLFIKYSEAPVTTLITKDRVLGHNPAAALYASGFYYRRLLQEGDL`
not soluble

// returns reported soluble on expression in E. coli for input `PQFSLWKRPVVTAYIEGQPVEVLLDTGADDSIVAGIELGNNYSPKIVGGIGGFINTLEYKNVEIEVLNKKVRATIMTGDTPINIFGRNILTALGMSLNL`
soluble

----------
assay: soluble on expression in E. coli; label from the status in PepcDB or PDB records
Quantity Name: soluble on expression in E. coli

biosequence=MSLHYPFVTNDDIEWMLSICVEWRLPEIAKEIYTTLGNQMLSAHNIIESIANFSRAGKYELVKSYSWLLFEASCMEGQKLDDPVLNAIVSKNSPAEDDVIIPQDILDCVVTNSMRQTLAPYAVLSQFYELRDREDWGQALRLLLLLIEFPYLPKHYLVLLVAKFLYPIFLLDDKKLMDEDSVATVIEVIETKWDDADEKSSNLYETIIEADKSLPSSMATLLKNLRKKLNFKLCQAFMEGHHHHHH quantity_name="soluble on expression in E. coli" test_result="not soluble"
biosequence=DVNFILTFPTGYGKTTLSLEIVRMIDLKPTQNFSRLIHVVPTRSLAKDIQNSACERGLGFAVQYSFTPSHIKSPLFLAKFIITTYDSFLLNLYKASIGEPFSYHGHYDLPRFGIYTSLVHFDEFHLMNEGNSWTSLLGAVRHLSKVGVNMILSSATPSKSVEEELIRMMENRKVVRLAVVNEYGESVKNRNCV quantity_name="soluble on expression in E. coli" test_result="not soluble"
biosequence=SSYCKQEGKDCIIFVTKEDHEAPSNAELVEDDPNDPYEDHGLILPNGDINWNCPCLGGMASGPCGQQFKDAFSCFHYSKEEIKGSDCVENFRGMQECMQKYPELYPQEDDNDSAPSGGANTAPTDSLPASSTDSTAAAATENPATS quantity_name="soluble on expression in E. coli" test_result=soluble
biosequence=MSLTELSAFPITRKWPAKHPERLQLYSLPTPNGVKVSIMLEEIGLAYEAHKVSFDNDDQLSPEFISLSANNKIPAILDPNGPGGQPLALFESGAILQYLAEKSGQLLSQDPAQRYQTLQWLMFQMGGIGPMFGQVGFFHFFAGKEYEDKRPRDRYVNESKRLLGVLDRHLKGRQWMAEEYSIADIAIFPWVRNLVERYNARDLVGFDQFKEVQRVLANFLERPAVQRGLKIPGEGHHHHHH quantity_name="soluble on expression in E. coli" test_result=soluble

// returns reported soluble on expression in E. coli for input `GMGIHQYFQSLSDLENIYRCPGKFKYQEHSVAEHSYKVTSIAQFFGAVEEDAGNEVNWRALYEKALNHDYSELFIGDIKTPVKYATTELREMLSEVEESMTKNFISREIPATFQPIYRHLLKEGKDSTLEGKILAISDKVDLLYESFGEIQKGNPENIFVEIYSEALATIYEYREMASVKYFLKEILPDMLAEKGIEKTELPQLTTEITTKALRDE`
soluble

// returns reported soluble on expression in E. coli for input `MSLRPGIKALAEATGYSIATVSKALNGSPMVAPATKALIHRAAADIGYRANARGMALRTGRTCQAAVLMPVTAARDYEWDGVEYTQILSGISQALEGSDYRMSVHVVRNVEDGCEVARRIIDEGLADGLIFSGIRADDPRIDLLDESRFPFVSLGRCRKPLDYAHVDIDNEWAAHAATARLIAGGHRRIALVNPLRHLSYAEDRVDGFLRAFREANLSPSDDLIAEGDLSTHFGRESALGLLDAARPPTAFVCSNESTTLGVLSGLGSRGRRIGVDVDVVAYDDINVSAYFTPPITTFYQPIEVLGRTLGEFLLRRMAGEDARSLKQVFRPRLIERQPDSLGGREGHHHHHH`
soluble

// returns reported soluble on expression in E. coli for input `MGSDKIHHHHHHMSAKQYDTLNNAEITSLAHRALACYPAALQGEVRLLCRSENATFLVTSAGKRYALRLHRSHYHQKAEIESELLWLDALRETGIVVPEAVRDASGERVQSLGLSDGSCRYAVLFHWIDGEMPTTSIDPRTFQQLGEITAHLHQHSRQWQKPDGFQRIVWDHHTMVSAQSHWGSWRDAPNLSRDEHGIVEEAIERMGTEMAEFGKAPHRYGLIHADLRLTNLLLHRGETRVIDFDDCGMGWYLHDLAAAISFVEHHPRAAEWVENWLCGYERVAHVSDEELALLPTLLIQRRIQLTAWVGSHAETEMAQSLGPDWASHSVRLCRRYLETRDLPLGVA`
not soluble

// returns reported soluble on expression in E. coli for input `MGSDKIHHHHHHMNIQEKSKIEYRSRINRVMDYIDIHLDQPLELKSIAEIANFSPFHFHRIFTFLIGETPIDYIQRLRIEKAACRLRENMDISISEIADSCGFCTVSLFSRVFKKFFGLTPSQFRKTERPVYAQDGILFSKNGQMVSKNLTPKHVLSPQLCSVKFKISYFMETKIEVKEMPDMKAVYCRHMGAFKEIVKAYEKLIKWAEPRGLYIPNVTKSATVTHDDPSVTELSKVRQSACIIVEGDVKGEGEIGNLVIPGGQYAVGHFELGTEDFEKAWNTMCKWFTESGYQQGDGCTYELYHNSHRTHPENKHIVDICIPIKPL`
not soluble

// returns reported soluble on expression in E. coli for input `MEKYEELFARIKEKAKLIDEKIFELIPEKDPRVLYEAARHYPLAGGKRVRPFVVLTSTEAVGGDPLRAIYPAVAIELIHNYSLVHDDIMDMDETRRGKPTVHRIWGVNMAILAGDLLFSKAFEAVARAEIPPEKKARVLEVIVKASNELCEGQARDLEFEKKSTVTIEEYMEMISGKTGALFEASAKVGGIIGTDNEEYIKALSSWGRNVGIAFQIWDDVLDLIADEKKLGKPVGSDIRKGKKTLIVAHFFENADEKDKQRFLKIFGKYAGDVKGRGIIEEDIKSDVMEAIDLLKKYGSIDYAAEIAKDMIKKANEALRILPKSKARMDLELLAKFIVEREY`
soluble

// returns reported soluble on expression in E. coli for input `MTGYPDVAAFDLDYTIWPCYCDTHLHGPFKPVKSSNGEVLTIICRDGYELTIYKDIPRILGDLKDNGVKLMTASRTWAPEIAQEILKIFKVKYAGVVTPLANLFDEFQWGERSKIGHLRDGLKDLYNTSDLKSKKICLFDDESRNKEVEKYGVKFVYVRDPENGPSWKLYQDYLSGKV`
not soluble

// returns reported soluble on expression in E. coli for input `MTHIIIDGDACPVVDSIIDLTTETGIFVTIIRSFSHFSNQLYPPHVSTLYVDDGPDAVDYKIVQLSTKDDIVVTQDYGLASLLVDKVLIVMHHNGKIYNSKNIQQLLDKRYINAQIRKQGGRHKGPPPFTKQDQKVFEQSLLKVIHRIKELDLEHHHHHH`
soluble

Where do the numbers come from? From the DeepSol protein solubility set.
